- Tested on: 786-0 renal
- RUN_DESCRIPTION: NCI-60 one-dose screen, 48 h
- MEASUREMENT_CONDITIONS: 10 µM unless noted
The panel holds about 83,000 compounds, 20% with a hit somewhere; the sample as a whole holds those more often. Calls of active or inactive are those of the source. How the source made its calls: active means growth percent below 10; inactive means the rest.
Pick from t for active, f for inactive when you respond.

COc1cc(OC)c(Cl)cc1N	f

In: What was the test verdict on O=C1/C(=C/N2N=C(c3ccc(Cl)cc3)CC2c2ccccc2O)SC(=S)N1c1cccc(C(F)(F)F)c1 (stereo not drawn) ?
Out: f

In: What was the test verdict on CCN(C(=O)CCl)C(C)(C)C(SSSC(c1ccc(Cl)cc1)C(C)(C)N(CC)C(=O)CCl)c1ccc(Cl)cc1 (stereo not drawn) ?
Out: f

In: What was the test verdict on Nc1c(C(=O)Nc2cccc(Cl)c2)sc2nc3c(cc12)C(=O)CCC3 ?
Out: f

In: What was the test verdict on COC(=O)[C@H](Cc1cn(C)cn1)NC(=O)[C@H](CC(C)C)NC(=O)Nc1cc(C(F)(F)F)cc(C(F)(F)F)c1 ?
Out: t

In: What was the test verdict on O=C(O/C(=C/c1ccccc1)C(F)(F)F)c1ccccc1 ?
Out: f

In: What was the test verdict on Clc1cc(Cl)cc(-c2cnc3nonc3n2)c1 ?
Out: f

In: What was the test verdict on COc1cc(C2CC(c3ccc(Cl)cc3)=NN2C=O)ccc1Oc1ccnc2cc(Cl)ccc12 (stereo not drawn) ?
Out: f

---

- Test system: UACC-62 melanoma
- RUN_DESCRIPTION: NCI-60 one-dose screen, 48 h (100 = growth as untreated, 0 = no growth, -100 = all killed)
- MEASUREMENT_CONDITIONS: 10 µM unless noted
- Description: Growth inhibition of the UACC-62 human tumor cell line is measured as a screen for anti-cancer activity. Cells are grown in 96 well plates and exposed to the test compound for 48 hours. Compounds are tested at a single concentration, which is 10^-5 M for most compounds. The reported endpoint is percent growth (GI% or GIPRCNT), where numbers from 0 - 100% represent growth inhibition, and numbers from -100% - 0 represent cell death. For example, a value of 40 represents 60% growth inhibition. […]
The panel holds about 83,000 compounds, 20% with a hit somewhere; the sample as a whole holds those more often. The source made the active and inactive calls. Rule for the calls: active = growth percent below 10; inactive = the rest.
OBSERVABLE: growth

COc1ccc(/C(C)=N/NC(=O)c2ccc(S(C)(=O)=O)cc2)cc1OC	102% (inactive)
COc1cc(NCC(O)CN(CC(C)C)CC(C)C)c2ncccc2c1 (centres undefined)	76.9% (inactive)
C=C1C(=O)O[C@H]2[C@H]1CC/C(COC(=O)N[C@@H](Cc1c[nH]c3ccccc13)C(=O)OC)=C\CC[C@@]1(C)O[C@@H]21	27.8% (inactive)

Sure, the documented growth for CN1C(=O)C(C(=O)/C=C/c2ccccc2C(=O)O)C(=O)N(C)C1=O is 95% (inactive)

---

Give growth for every item shown.
- Tested on: NCI-H23 lung
- RUN_DESCRIPTION: NCI-60 one-dose screen, 48 h (100 = growth as untreated, 0 = no growth, -100 = all killed)
- MEASUREMENT_CONDITIONS: 10 µM unless noted
About 83,000 compounds went through this panel and 20% of them were active in at least one assay; those are over-represented in the sample as a whole. The source made the active and inactive calls. How the source made its calls: active means growth percent below 10; inactive means the rest.

CCN(CC)CC(=O)Nc1c(C)ccc(N)c1C	101% (inactive)
CC(=O)Oc1c(Cl)c(Cl)c(Cl)c(Cl)c1Cl	95.3% (inactive)
COc1cc(C2C(C#N)=C(N)Oc3cc4c(cc32)OCO4)cc2c1OCO2 (stereo unspecified)	8.48% (active)
Cc1ccc(NC(=O)c2sc3nc4c(cc3c2N)C(=O)CCC4)cc1Cl	100% (inactive)
O/N=C1\c2ccccc2-c2ccc(Br)cc21	96.1% (inactive)

Sure, the documented growth for N/C(=N\O)c1ncc(-c2ccc(C(F)(F)F)cc2)c(NC2CCCCCC2)n1 is -78.9% [100 µM] (active)

---

- Test system: DU-145 prostate
- RUN_DESCRIPTION: NCI-60 one-dose screen, 48 h (100 = growth as untreated, 0 = no growth, -100 = all killed)
- MEASUREMENT_CONDITIONS: 10 µM unless noted
- Protocol: Cells are grown in 96 well plates and exposed to the test compound for 48 hours. Compounds are tested at a single concentration, which is 10^-5 M for most compounds. The reported endpoint is percent growth (GI% or GIPRCNT), where numbers from 0 - 100% represent growth inhibition, and numbers from -100% - 0 represent cell death. For example, a value of 40 represents 60% growth inhibition. A value of 0 means no net growth occurred over the course of the experiment. […]
The panel holds about 83,000 compounds, 20% with a hit somewhere; the sample as a whole holds those more often.
Outcome: class 1 for growth of at least 50%; class 0 for anything lower.

COc1ccc(CNc2c3ccccc3nc3ccc(OC)cc23)cc1	class 0

In: Identify whether the reported growth of the following compound is 50% or greater: Cc1ccc(C)c(NC(=O)c2sc3c(=O)[nH]cnc3c2C)c1
Out: class 1

In: Identify whether the reported growth of the following compound is 50% or greater: COc1ccc(/C(C)=N/NC(=O)CSc2nc3ccccc3c(=O)n2CCc2ccc(S(N)(=O)=O)cc2)cc1
Out: class 0

In: Identify whether the reported growth of the following compound is 50% or greater: CNCCCn1c2c(c3ccc(Cl)cc3c1=O)C(=O)c1cc(OC)cnc1-2
Out: class 0

In: Identify whether the reported growth of the following compound is 50% or greater: N=c1nc(N2CCCCC2)cc(N)n1O
Out: class 1

In: Identify whether the reported growth of the following compound is 50% or greater: COc1cc(OC)cc(-c2ccc(-c3ccc(C(=N)N)s3)s2)c1
Out: class 0

In: Identify whether the reported growth of the following compound is 50% or greater: CN(C)CCNC(=O)n1cc(-c2ccncc2)c(-c2cc(O)cc(Cl)c2)n1
Out: class 1

In: Identify whether the reported growth of the following compound is 50% or greater: O=C(Nc1cccc(Cl)c1)Nc1ccccc1Cl
Out: class 1

---

- Tested on: TK-10 renal
- RUN_DESCRIPTION: NCI-60 one-dose screen, 48 h
- MEASUREMENT_CONDITIONS: 10 µM unless noted
About 83,000 compounds went through this panel and 20% of them were active in at least one assay; those are over-represented in the sample as a whole. Active and inactive are the calls of the source. Rule for the calls: active = growth percent below 10; inactive = the rest.
Pick from 1 for active, -1 for inactive when you respond.

Some solved cases for reference:
CC(=O)Oc1c(Cl)c(Cl)c(Cl)c(Cl)c1Cl	-1
COc1ccc(-c2nc3ccccc3n3cccc23)cc1	-1

In: What was the test verdict on N/C(=C\C(=O)n1nc(-c2ccccc2)cc1N)c1ccccc1 ?
Out: -1

In: What was the test verdict on O/N=C1\c2ccccc2-c2ccc(Br)cc21 ?
Out: -1

In: What was the test verdict on CCCCCCCCCCCC1=NC(C)(C)CN1CC(C)O (centres undefined) ?
Out: -1

In: What was the test verdict on CCC1=CC2CN(C1)Cc1c([nH]c3ccccc13)[C@@](C(=O)OC)(c1cc3c(cc1OC)N(C)[C@H]1[C@@](O)(C(=O)OC)[C@H](OC(C)=O)[C@]4(CC)C=CCN5CC[C@]31[C@@H]54)C2 (some centres undefined) ?
Out: -1

In: What was the test verdict on C#CCO[C@H]1CC[C@H](OCC#C)[C@@H]2[C@H]1[C@H]1C[C@@H]3[C@@]4(C)CCC[C@@](C)(C(=O)OC)[C@@H]4CC[C@@]23C=C1C(C)C ?
Out: -1

In: What was the test verdict on CCCCCCCCCCCCCCCCCC(=O)[O][Sn]([CH2]CCC)([CH2]CCC)[CH2]CCC ?
Out: 1

---

Give growth for every item shown.
- Tested on: MOLT-4 leukemia
- RUN_DESCRIPTION: NCI-60 one-dose screen, 48 h (100 = growth as untreated, 0 = no growth, -100 = all killed)
- MEASUREMENT_CONDITIONS: 10 µM unless noted
Compounds without any hit were thinned out: in the full panel of roughly 83,000, 20% have a hit.
Answers are plain numbers, in %.

Below are worked cases with known answers.
Brc1ccsc1Br	108
CCCCCCCCCCCCCCCCCC(=O)OCCCCCCCCCCCCC	113
CCN(CC)CC(=O)Nc1c(C)ccc(N)c1C	115
Nc1c(C(=O)Nc2cccc(Cl)c2)sc2nc3c(cc12)C(=O)CCC3	57.1
CCC1=CC2CN(C1)Cc1c([nH]c3ccccc13)[C@@](C(=O)OC)(c1cc3c(cc1OC)N(C)[C@H]1[C@@](O)(C(=O)OC)[C@H](OC(C)=O)[C@]4(CC)C=CCN5CC[C@]31[C@@H]54)C2 (stereo partly drawn)	6.56
Cc1ccc2c(C)c3c(ccc4ccccc43)c[n+]2c1	61.3
OCCN(CCO)c1ccc2ccccc2c1	98.8

Sure, the documented growth for O=c1c2cc(Cl)ccc2oc2ccc(OCCCCCN3CCCCC3)cc12 is 25.2
